FYI, the data here is from paper PMC9029618.

System: scopolamine-induced amnesic mice
Assay: Y-maze test, scopolamine-induced amnesia
Conditions: 7.5 mg/kg p.o. 7 days, scopolamine 1 mg/kg i.p.
quantityName: % spontaneous alternation performance (% SAP)

Past entries and their recorded results:
structureAsSmiles	assayValue
O=C(/C=C/c1ccc(Cl)cc1)CC(=O)/C=C/c1ccc(Cl)cc1	55.66 ± 2.82%
O=C(/C=C/c1ccccc1)CC(=O)/C=C/c1ccccc1	poor response
O=C(/C=C/c1ccc([N+](=O)[O-])cc1)CC(=O)/C=C/c1ccc([N+](=O)[O-])cc1	non-significant
COc1ccc(/C=C/C(=O)CC(=O)/C=C/c2ccc(OC)cc2)cc1	47.16 ± 2.77%
Cc1ccc(/C=C/C(=O)CC(=O)/C=C/c2ccc(C)cc2)cc1	poor response

Here's the next entry for you.
Exercise: # lookup: % spontaneous alternation performance (% SAP) of CN(C)c1ccc(/C=C/C(=O)CC(=O)/C=C/c2ccc(N(C)C)cc2)cc1
Key: non-significant

###

Tested on: scopolamine-induced amnesic mice
Assay: Novel object recognition test (NORT), scopolamine-induced amnesia
Type: in vivo
Settings: short-term memory, 15 mg/kg
quantityName: discrimination index (DI) (%)
Record the value in %, omitting the unit from your answer.

Past entries and their recorded results:
structureAsSmiles	scaleUnit	assayValue
O=C(/C=C/c1ccc(Cl)cc1)CC(=O)/C=C/c1ccc(Cl)cc1	%	62.03
O=C(/C=C/c1ccccc1)CC(=O)/C=C/c1ccccc1	%	55.10
Cc1ccc(/C=C/C(=O)CC(=O)/C=C/c2ccc(C)cc2)cc1	%	57.47

Here's the next entry for you.
Exercise: # lookup: discrimination index (DI) of COc1ccc(/C=C/C(=O)CC(=O)/C=C/c2ccc(OC)cc2)cc1
Key: 61.25

###

Tested on: scopolamine-induced amnesic mice
Experiment: Y-maze test, scopolamine-induced amnesia
Details: 15 mg/kg p.o. 7 days, scopolamine 1 mg/kg i.p.
quantityName: % spontaneous alternation performance (% SAP)

Past entries and their recorded results:
compound	targetOrSystem	assayValue
Cc1ccc(/C=C/C(=O)CC(=O)/C=C/c2ccc(C)cc2)cc1 [Compound 1b]	scopolamine-induced amnesic mice	poor response
COc1ccc(/C=C/C(=O)CC(=O)/C=C/c2ccc(OC)cc2)cc1 [Compound 1c]	scopolamine-induced amnesic mice	62.33 ± 184%
O=C(/C=C/c1ccc(Cl)cc1)CC(=O)/C=C/c1ccc(Cl)cc1 [Compound 1d]	scopolamine-induced amnesic mice	67.66 ± 2.84%
CN(C)c1ccc(/C=C/C(=O)CC(=O)/C=C/c2ccc(N(C)C)cc2)cc1 [Compound 1e]	scopolamine-induced amnesic mice	non-significant
O=C(/C=C/c1ccccc1)CC(=O)/C=C/c1ccccc1 [Compound 1a]	scopolamine-induced amnesic mice	poor response

Here's the next entry for you.
Exercise: # lookup: % spontaneous alternation performance (% SAP) of O=C(/C=C/c1ccc([N+](=O)[O-])cc1)CC(=O)/C=C/c1ccc([N+](=O)[O-])cc1 [Compound 1f]
Key: non-significant

###

Target: BuChE (Equus caballus)
Construct: The enzymes AChE and BuChE were obtained from electric eel and equine serum, respectively; from tissue; host or cells: equine serum
Sequence (P81908 whole entry): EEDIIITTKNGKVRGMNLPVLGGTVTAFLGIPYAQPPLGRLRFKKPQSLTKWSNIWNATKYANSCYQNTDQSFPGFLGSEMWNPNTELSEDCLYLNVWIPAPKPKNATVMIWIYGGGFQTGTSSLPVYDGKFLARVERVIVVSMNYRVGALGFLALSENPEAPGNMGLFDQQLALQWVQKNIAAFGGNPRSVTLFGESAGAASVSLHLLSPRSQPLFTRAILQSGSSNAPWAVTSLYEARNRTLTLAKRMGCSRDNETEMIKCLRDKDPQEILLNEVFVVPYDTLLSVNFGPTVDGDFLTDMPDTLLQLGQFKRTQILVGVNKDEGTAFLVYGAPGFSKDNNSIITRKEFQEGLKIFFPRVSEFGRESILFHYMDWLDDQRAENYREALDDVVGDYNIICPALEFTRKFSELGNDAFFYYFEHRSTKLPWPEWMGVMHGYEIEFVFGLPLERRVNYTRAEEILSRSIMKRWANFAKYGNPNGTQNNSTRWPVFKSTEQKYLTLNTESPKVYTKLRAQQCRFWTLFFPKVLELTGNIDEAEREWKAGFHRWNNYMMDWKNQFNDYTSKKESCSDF
Assay: biochemical
Conditions: BuChE from equine serum, Ellman's method, n = 3; read-out: BuChEI (IC50 (nM))
Please respond with true when measured IC50 is strictly beneath 2000 nM, and with false in all other cases.

Exercise: Decide: IC50 of COc1ccc(/C=C/C(=O)CC(=O)/C=C/c2ccc(OC)cc2)cc1 strictly below 2000 nM?
Key: true
